biological target: wild-type FLT3 receptor (Homo sapiens); test: Cell-based FLT3 receptor ELISA (FLT ligand-induced phosphorylation in Baf3 FLT3 cells); settings: 100 ng/mL Flt ligand, uncertainty ±20%
Sequence (P36888 27-993): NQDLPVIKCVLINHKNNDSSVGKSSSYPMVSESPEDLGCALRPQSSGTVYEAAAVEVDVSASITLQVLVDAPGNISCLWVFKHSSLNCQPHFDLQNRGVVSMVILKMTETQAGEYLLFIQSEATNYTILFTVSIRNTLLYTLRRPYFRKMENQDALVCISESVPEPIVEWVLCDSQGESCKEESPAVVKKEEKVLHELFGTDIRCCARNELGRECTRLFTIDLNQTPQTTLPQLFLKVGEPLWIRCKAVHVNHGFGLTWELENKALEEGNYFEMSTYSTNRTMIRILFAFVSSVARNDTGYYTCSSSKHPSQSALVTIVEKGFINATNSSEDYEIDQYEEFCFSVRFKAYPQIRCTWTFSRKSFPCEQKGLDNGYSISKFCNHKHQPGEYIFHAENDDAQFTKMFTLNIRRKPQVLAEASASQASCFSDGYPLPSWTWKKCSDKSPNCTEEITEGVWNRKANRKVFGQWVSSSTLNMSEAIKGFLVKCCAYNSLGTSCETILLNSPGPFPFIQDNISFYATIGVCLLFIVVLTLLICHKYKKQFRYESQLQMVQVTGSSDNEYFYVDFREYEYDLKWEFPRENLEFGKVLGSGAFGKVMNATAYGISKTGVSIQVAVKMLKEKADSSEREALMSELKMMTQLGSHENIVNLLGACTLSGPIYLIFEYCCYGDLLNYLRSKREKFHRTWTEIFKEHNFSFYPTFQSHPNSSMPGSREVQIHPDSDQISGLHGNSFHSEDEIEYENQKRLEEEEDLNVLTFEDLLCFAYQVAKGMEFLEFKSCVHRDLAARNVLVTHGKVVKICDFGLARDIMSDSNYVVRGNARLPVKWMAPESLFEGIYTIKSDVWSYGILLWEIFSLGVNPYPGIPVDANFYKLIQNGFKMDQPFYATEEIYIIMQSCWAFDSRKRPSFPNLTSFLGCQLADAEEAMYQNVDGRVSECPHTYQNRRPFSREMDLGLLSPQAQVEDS
metric: IC50 (nM)

[A] CCN1CCN(c2ccc3c(C4CCN(C(=O)Nc5ccc(N6CCOCC6)cc5)CC4)ncnc3c2)CC1
[B] COc1cc2ncnc(C3CCN(C(=O)Nc4ccc(N5CCCCC5)cc4)CC3)c2cc1OC
Task item: // which entry reports the smaller IC50, A or B ? Refer to your chosen item by its label in the answer.
Reply: B

[A] CN1CCN(CCCOc2ccc3c(C4CCN(C(=O)Nc5ccc(N6CCCC6)nc5)CC4)ncnc3c2)CC1
[B] CC(=O)N1CCN(c2ccc3c(C4CCN(C(=O)Nc5ccc(N6CCOCC6)cc5)CC4)ncnc3c2)CC1
[C] CC(=O)N1CC(Oc2ccc3c(C4CCN(C(=O)Nc5ccc(N6CCCC6)cc5)CC4)ncnc3c2)C1
Task item: Sort low-to-high on IC50, please. List the labels in the requested order.
Reply: B, C, A
(B: 2 nM, C: 4 nM, A: 16 nM)

---

molecular target: isolated kinase domain of the human FLT3 receptor (a.a. 571-993) (Homo sapiens, UniProt P36888); construct: human FLT3 receptor (a.a. 571-993); experiment: FLT3 fluorescence polarization kinase assay; conditions: 150 uM ATP; uncertainty ±10%
Sequence (P36888 571-993): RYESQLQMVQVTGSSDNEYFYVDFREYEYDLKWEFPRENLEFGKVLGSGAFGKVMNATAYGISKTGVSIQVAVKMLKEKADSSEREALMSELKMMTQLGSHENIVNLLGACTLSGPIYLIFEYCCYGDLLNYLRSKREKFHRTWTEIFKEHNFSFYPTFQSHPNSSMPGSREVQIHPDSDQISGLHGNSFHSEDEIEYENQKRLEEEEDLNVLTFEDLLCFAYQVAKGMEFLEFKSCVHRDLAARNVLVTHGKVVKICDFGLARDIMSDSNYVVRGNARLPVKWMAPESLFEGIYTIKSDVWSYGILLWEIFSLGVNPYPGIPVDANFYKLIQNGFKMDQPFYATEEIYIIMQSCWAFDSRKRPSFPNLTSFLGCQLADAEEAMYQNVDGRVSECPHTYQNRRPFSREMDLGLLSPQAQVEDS
metric: IC50 (nM)

// below: answered molecules
O=C(Nc1ccc(N2CCOCC2)cc1)N1CCC(c2ncnc3cc(OCCCN4CCN(CCO)CC4)ccc23)CC1 [Example 116] | 14
O=C(Nc1ccc(N2CCCC2)cc1)N1CCC(c2ncnc3cc(N4CCNC4=O)ccc23)CC1 [Compound 178] | 10
CCCCc1ccc(NC(=O)N2CCC(c3ncnc4cc(OC)c(OC)cc34)CC2)cc1 [Example 43] | 24
O=C(Nc1ccc(N2CCOCC2)cc1)N1CCC(c2ncnc3cc(N4CCN(CCO)CC4)ccc23)CC1 [Example 137] | 12
O=C(Nc1ccc(N2CCOCC2)cc1)N1CCC(c2ncnc3cc(N4CC[C@H](O)C4)ccc23)CC1 [Example 128] | 25
COc1cc2ncnc(C3CCN(C(=O)Nc4ccc(N5CCCCC5)cc4)CC3)c2cc1OC [Example 19] | 17
CN1CCN(CCOc2ccc3c(C4CCN(C(=O)Nc5ccc(N6CCOCC6)cc5)CC4)ncnc3c2)CC1 [Example 156] | 6
O=C(Nc1ccc(N2CCCC2)nc1)N1CCC(c2ncnc3cc(OCCN4CCOC4=O)ccc23)CC1 [Example 92] | 0.2

[P] CC(=O)N1CCC[C@H]1COc1ccc2c(C3CCN(C(=O)Nc4ccc(N5CCCC5)cc4)CC3)ncnc2c1 [Example 162]
[Q] CC(C)Oc1ccc(NC(=O)N2CCC(c3ncnc4ccccc34)CC2)cc1 [Example 8]
Task item: // which entry reports the smaller IC50, P or Q ? Refer to your chosen item by its label in the answer.
Reply: P
(P: 32 nM, Q: 200 nM)

---

molecular target: UniProtKB P36888; assay: Cell-based FLT3 receptor ELISA (FLT ligand-induced phosphorylation in Baf3 FLT3 cells); conditions: 100 ng/mL Flt ligand, uncertainty ±20%
Counter-ions that a name gives are not always drawn.
metric: IC50 (µM)

// below: answered compounds
O=C(COc1ccc2c(C3CCN(C(=O)Nc4ccc(N5CCCC5)cc4)CC3)ncnc2c1)N1CCOCC1 | 0.149
O=C(Nc1ccc(N2CCCC2)cc1)N1CCC(c2ncnc3cc(N4CCN(CCO)CC4)ccc23)CC1 | 0.001
O=C(Nc1ccc(N2CCCC2)cc1)N1CCC(c2ncnc3cc(N4CCC4)ccc23)CC1 | 0.002
CCC(C)c1ccc(NC(=O)N2CCC(c3ncnc4cc(OC)c(OC)cc34)CC2)cc1 (centres unmarked) | 0.007
CS(=O)(=O)NCCCOc1ccc2c(C3CCN(C(=O)Nc4ccc(N5CCCC5)nc4)CC3)ncnc2c1 | 0.009
CC(C)Oc1ccc(NC(=O)N2CCC(c3ncnc4cc(N5CCN(C)CC5)ccc34)CC2)cc1 | 0.013

[1] CC(C)Oc1ccc(NC(=O)N2CCC(c3ncnc4cc(OCCCN5CCCC5=O)ccc34)CC2)cc1
[2] O=C(Nc1ccc(N2CCOCC2)cc1)N1CCC(c2ncnc3cc(OCCCN4CCC[C@H]4CO)ccc23)CC1
Task item: // which entry reports the smaller IC50, 1 or 2 ? Refer to your chosen item by its label in the answer.
Reply: 1

[a] COc1cc2ncnc(C3CCN(C(=O)Nc4ccc(OC(F)F)cc4)CC3)c2cc1OC
[b] CN1CCN(CCCOc2ccc3c(C4CCN(C(=O)Nc5ccc(OC6CCCC6)nc5)CC4)ncnc3c2)CC1
Task item: // which entry reports the smaller IC50, a or b ? Refer to your chosen item by its label in the answer.
Reply: b
(b: 0.063 µM, a: 0.542 µM)

[P] CN1CCN(c2ccc3c(C4CCN(C(=O)Nc5ccc(N6CCOCC6)cc5)CC4)ncnc3c2)CC1
[Q] O=C(Nc1ccc(N2CCOCC2)cc1)N1CCC(c2ncnc3cc(OCCCO)ccc23)CC1
Task item: // which entry reports the smaller IC50, P or Q ? Refer to your chosen item by its label in the answer.
Reply: P
(P: 0.027 µM, Q: 0.098 µM)

[A] COc1cc2ncnc(C3CCN(C(=O)Nc4ccc(OC(C)C)cc4)CC3)c2cc1OC [Example 1, hydrochloride]
[B] CC(C)Oc1ccc(NC(=O)N2CCC(c3ncnc4ccc(C#CCO)cc34)CC2)cc1
[C] CN1CCC(COc2ccc3c(C4CCN(C(=O)Nc5ccc(N6CCOCC6)nc5)CC4)ncnc3c2)CC1
[D] CC(C)Oc1ccc(NC(=O)N2CCC(c3ncnc4ccc(OCCCN5CCN(C)CC5)cc34)CC2)cc1
Task item: Please give the order of these compounds when sorted by IC50, largest value leading. List the labels in the requested order.
Reply: D, C, B, A
(D: 0.096 µM, C: 0.053 µM, B: 0.036 µM, A: 0.017 µM)
